assay: yeast display, Sf9 membrane polyspecificity reagent, FACS + sequencing; frameworks hold sequencing errors
reported-metric: polyreactivity (PSR sort gate)

INSERT INTO assay_data (sequence_entry, observed_measurement) VALUES
  ('QVQLVESGGALVQAGGSLRLSCSASGSTLPGYAMVWYRQAPGKERELVAGISTRGGNTYYADSVKGRFTISRDNAKNTVYGQLNSLNPEDTAVYYCATTSSWRYGYWGEGTQVTVSS', 'high polyreactivity'),
  ('QVQLVESGGGLVQAGGSLRLSCAASGYTFPRNAMGWYRQEPGKERELVAAISASGGRTSYADSVKVRFTISRDNAKNTVYLQMNSLKPEDTAVYYCAAPFLRRIGYPRSYDYWGQGTQVTVSS', 'high polyreactivity');

----------
assay: yeast display, Sf9 membrane polyspecificity reagent, FACS + sequencing; frameworks hold sequencing errors
reported-metric: polyreactivity (PSR sort gate)

INSERT INTO results (sequence_entry, reported_metric, observed_measurement) VALUES
  ('QVQLVESGGGLVQAGGSLRLSCAASGNTFVYYAMGWYRQAPGKERELVAAISSSGGRTYYADSVKGRFTISRDNAKNTVYLQMNSLKPEDTAVYYCAARGPYTTKAYDYWGQGTQVTVSS', 'polyreactivity (PSR sort gate)', 'high polyreactivity'),
  ('QVQLQESGGGLVQAGGSLRLSCAASGSNFDTPTMGWYRQAPGKERELVASIAYDDNTYYADSVKGRFTISRYNAKNTVYLQMNSLKPGETAVYYCAVTDRIYYYFVYWGQGTRVTVSS', 'polyreactivity (PSR sort gate)', 'high polyreactivity'),
  ('QVQLVESAGGLVQAGGSLRLSCAASGSTFTSYAMGWYRQAPGKERELVDAITRNGGTTYYADSVKGRFTISRDNAKNTVYLQMNSLKPEDTAVYYCNAPHYYYITSDRRFDYWGQGTQVTVSS', 'polyreactivity (PSR sort gate)', 'low polyreactivity'),
  ('QVQLVESGGGLVQARGSLRLSCAASGRIFDRYDMGCYRQAPGKEREFVASITWSDGSTYYADSVKGRFTISRDYAKNTVYLQMNSLKPEDTAVYYCNADYVYYYIPVVYEYDYWGQGTQVTVSS', 'polyreactivity (PSR sort gate)', 'high polyreactivity'),
  ('QVQLVESGGGLFQAGGSLRLSCAASGSTFNTNAMAWYRHAPGKERELVAAISWSSTRTYYADSVKWRFTISRDNAKNTVYLQMNSLKPEDTAVYYCAAATYQSRYFQRFDYWGQGTQVTVSS', 'polyreactivity (PSR sort gate)', 'high polyreactivity'),
  ('QVQLVESGGGLVQAGGSLRLSCAASGFNFSDYDMGWYRQAPGKERELVAAITYSGCSTYYADSVKGRFTISRDNAKKTVYLQMNSLKPEDTAVYYCAAVKSRYAEAVDYYYWGQGTQVTVSS', 'polyreactivity (PSR sort gate)', 'low polyreactivity'),
  ('QVQLVESGGGLVQAGGSLRLSCAASGFTLRLNAMGWYRQAPGKARELVAAITRSGGNTYYADSVKGRFTISRDNAKNTVYLEMNSLKPEDSAVYYCAVRQLDRRSPKYNYWGQGTQVTVSS', 'polyreactivity (PSR sort gate)', 'high polyreactivity'),
  ('QVQLVESGGGLVQAGGSLRLSCADSGFTFLSNVMGWYRQAPGKERELDAAINYSGDGTYYADSVKGRFTISRDNAKNTVYLQMNSLKPEDSAVYYCAADVEYYRDVPPQVYVSDDYWGQGTQVTVSS', 'polyreactivity (PSR sort gate)', 'low polyreactivity'),
  ('QVQLLESGGGLVQAGGSLRLSCAASGRILTGYAMGWYRQAPGKERELVASINWRGGSTYYADSVKRRFTISRDNAKNTVYLQLNSLKPEDTAVYYCAARVRVTGTYYTKYDYWGQGTQVTVSS', 'polyreactivity (PSR sort gate)', 'high polyreactivity'),
  ('QVQLVESGGGLVQAGGSLRLSCAASGNTFVDYAMGWYRQAPGKERELVAAISDGGSTNYADSVKGRFTISRDNAKNTVYLQMNSLKPEDTAVYYCAKDELYIPGVWPYYEYDYWGQGTQLTVSS', 'polyreactivity (PSR sort gate)', 'low polyreactivity'),
  ('QVQLVESAGGLVQAGGSLRLSCAASGFTFREYAMGWYRQAPGKERELVAVITSGDNTYYADSVKGRFTISRDNAKNTVYLQMNSLKPEDTAVYYCAKDYNRYYWPWVIRGYDYWGQGTQVTVSS', 'polyreactivity (PSR sort gate)', 'low polyreactivity'),
  ('QVQLVESGGGLVQAGGSLRLSCAASGITFPLYAMGWYRQAPGKERELVASITRGGTTNYADSVKGRFTISRDNAKNTVYLQMNSLKPEDTAVYYCAAVVTRERGYDYWGQGTQVTVSS', 'polyreactivity (PSR sort gate)', 'low polyreactivity'),
  ('QVQLVESGGGLVQAGGSLRLSCAASGRIFPKYAMGWYSQAPGKERELVAGITKRVGSTYYADSVKGRFTISRDNAKNTVYLQMNSLKPDDTAVYYCAADYRYLIDYLDPEKEGMDYWGQGTQVTVSS', 'polyreactivity (PSR sort gate)', 'low polyreactivity'),
  ('QVQLVESGGGLVQAGGSLRLSCAASGFIFHTYAMGWYRQAPGKERELVAAISGGTSSTYYADSVKGRFTISRDNAKNTVYLQMNSLKPEDTAVYYCAARSRRGGYPRYYYWGQGTQVTVSS', 'polyreactivity (PSR sort gate)', 'high polyreactivity'),
  ('QVQLVESGGGLVQAGGSLRLSCAASGSIFQYNAMGWYRQAPGKEREFVAAISSRGGITYYADSVKGRFTISRDNAKNTVYLQMNSLKPEDTAVYYCAAEAYYSEVRWYEYWGQGTQVTVSS', 'polyreactivity (PSR sort gate)', 'high polyreactivity'),
  ('QVQLVESGGGLVQAGGSLRLSCAASGIIFSSNAMGWYRQAPGKERELVAAISRRGGSTYYADSVKGRFTISRDNAKNTVYLQMNSLKPEDTAVYYCNALLYNGAGYDYWGQGTQVTVSS', 'polyreactivity (PSR sort gate)', 'high polyreactivity'),
  ('QVQLVESGGGLVQAGGSLRLSCAASGFIFRSYAMGWYRQAPGKERELVAAISFSGGRTYYADSVKGRFTISRDNAKNTVYLQMNSLKPEDTAVYYCAAVPARIGVVLHIYTDSHYDYWGQGTQVTVSS', 'polyreactivity (PSR sort gate)', 'low polyreactivity'),
  ('QVQLVESGGGLVQAGGSLRLSCASSGLILAPNDMGWYRQAPGKERELVAAITFRGVRTYYADSVKGRFTISRDNAKNNVYLQLNSLKPEDTAVYYCAAAVSKHYPYNYWGQGTQVSVSS', 'polyreactivity (PSR sort gate)', 'high polyreactivity'),
  ('QVQLVESGGGLVQAGGSLRLRCAASGFIFARYAMGWYRQAPGKERELVASITCRGTSTRYADSVKGRFTISRDNAKNTVYLEMNSLKPEDTAVYYCNAARLSYSWVPSEMDFWGQGTQVTVSS', 'polyreactivity (PSR sort gate)', 'high polyreactivity'),
  ('HVQLVESGGGLVQPGGSLRLSCAASGLTFPSYAMGWYRQAPGKERELVAAISSGDSTNYADSVKGRFTISRDNAKNTVYLQMNSLKPEDTAVYYCAVGLPHGGRSLYGSWYRFDYWGQGTQVTVSS', 'polyreactivity (PSR sort gate)', 'low polyreactivity'),
  ('QVQLVESGGGLVQAGGSLRLSCAASGSIFYKYAMGWYRQAPGKEREFVAAITGSGVRTYYADSVKGRFTISRDNAKNTVYLQMNRLKPDDTAVYYCAASSYGYDYWGQGTQVTVSS', 'polyreactivity (PSR sort gate)', 'high polyreactivity');

Where do the numbers come from? From the nanobody polyreactivity screen of Harvey et al. (2022).
